# TARGET OF ASSAY: Mitogen-activated protein kinase 12 (Homo sapiens) (UniProt P53778)
# Sequence (P53778 whole entry): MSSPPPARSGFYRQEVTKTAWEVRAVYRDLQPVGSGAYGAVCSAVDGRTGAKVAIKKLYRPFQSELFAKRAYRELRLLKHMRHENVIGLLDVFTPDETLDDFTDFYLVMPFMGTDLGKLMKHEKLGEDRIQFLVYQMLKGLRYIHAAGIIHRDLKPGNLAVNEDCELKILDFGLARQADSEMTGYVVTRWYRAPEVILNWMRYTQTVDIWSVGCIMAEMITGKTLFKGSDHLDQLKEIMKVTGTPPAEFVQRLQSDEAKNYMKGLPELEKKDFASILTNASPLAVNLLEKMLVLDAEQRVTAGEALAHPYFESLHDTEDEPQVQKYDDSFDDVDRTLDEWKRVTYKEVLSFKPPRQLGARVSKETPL
# MEASUREMENT NOTES: Inhibition of p38-gamma at 10 uM by HTRF assay relative to control
EXPERIMENTAL READOUT: inhibition

Here's what some known entries look like.
structure_smiles=O=C(NC1Cc2ccccc2C1)c1cccc(Nc2ccnc(N3CCN(c4ccccc4)CC3)n2)c1 experimental_readout=inhibition experimental_value=2%
structure_smiles=O=C(NCc1cccnc1)c1cccc(-c2ccc(Nc3ccc4ncsc4c3)nn2)c1 experimental_readout=inhibition experimental_value=5%
structure_smiles=O=C(NCCc1ccc(O)cc1)c1cccc(Nc2nccc(Nc3ccc4ncsc4c3)n2)c1 experimental_readout=inhibition experimental_value=0%

*Q* I would be grateful if you could share the reported inhibition for O=C(NCc1ccncc1)c1cccc(Nc2cc(Nc3cccc(Br)c3)ncn2)c1 .
*A* 0%

*Q* I would be grateful if you could share the reported inhibition for O=C(CN1CCN(c2ncnc3c2CN(Cc2ccccc2)CC3)CC1)Nc1cc(F)ccc1F .
*A* 0%

*Q* I would be grateful if you could share the reported inhibition for Cc1cccc(CN2CCN(c3cc(N(C)c4cccc(C)c4)ncn3)CC2)c1 .
*A* 2%

*Q* I would be grateful if you could share the reported inhibition for Cc1cccc(Oc2ccnc(N3CCN(C(=O)c4c(C)noc4C)CC3)n2)c1 .
*A* 7%

*Q* I would be grateful if you could share the reported inhibition for Nc1nc(Nc2ccc(C(=O)NCCc3ccncc3)cc2)cc(N2CCOCC2)n1 .
*A* 3%

*Q* I would be grateful if you could share the reported inhibition for CN(C)CC(C)(C)CNC(=O)[C@@H]1CCCN1c1nccc(Nc2ccccc2)n1 .
*A* 2%

*Q* I would be grateful if you could share the reported inhibition for Cc1cccc(Nc2nccc3c2CN(C(=O)c2cc(C)n(C)c2C)CC3)c1 .
*A* 1%

*Q* I would be grateful if you could share the reported inhibition for Cc1cccc(Nc2ncnc3c2CN(C(=O)c2ccc(N(C)C)c4ccccc24)CC3)c1 .
*A* 2%

*Q* I would be grateful if you could share the reported inhibition for COc1cccc(Nc2cc(Nc3cccc(C(=O)N(C)CCc4ccccn4)c3)nc(N)n2)c1 .
*A* 3%

*Q* I would be grateful if you could share the reported inhibition for COc1ccc(-c2noc(CN3CCN(c4cc(Nc5cccc(O)c5)ncn4)CC3)n2)cc1 .
*A* 0%

*Q* I would be grateful if you could share the reported inhibition for Cc1cccc(Oc2ccnc(N3CCN(CC(=O)Nc4cccc5c4CCCC5)CC3)n2)c1 .
*A* 0%

*Q* I would be grateful if you could share the reported inhibition for CN(C)CC(C)(C)CNC(=O)c1cccc(Nc2nccc(Nc3ccc4ncsc4c3)n2)c1 .
*A* 9%

*Q* I would be grateful if you could share the reported inhibition for Nc1nc(Nc2ccc3ncsc3c2)cc(N2CCC[C@H]2C(=O)N[C@@H](CO)c2ccccc2)n1 .
*A* 1%

*Q* I would be grateful if you could share the reported inhibition for Cc1cccc(Nc2nccc(Nc3cccc(C(=O)NCc4ccc(N(C)C)cc4)c3)n2)c1 .
*A* 0%

*Q* I would be grateful if you could share the reported inhibition for COc1ccc(NC(=O)Cc2ccc(Nc3cc(N(C)c4cccc(C)c4)ncn3)cc2)cn1 .
*A* 1%

*Q* I would be grateful if you could share the reported inhibition for Cc1cccc(Nc2nccc(Nc3cccc(C(=O)N(C)CCc4ccccn4)c3)n2)c1 .
*A* 2%

*Q* I would be grateful if you could share the reported inhibition for Cc1cccc(N(C)c2cc(Nc3cccc(C(=O)NCc4ccncc4)c3)ncn2)c1 .
*A* 3%

###

# TARGET OF ASSAY: Tyrosine-protein kinase Lyn (Homo sapiens) (UniProt P07948)
# Sequence (P07948 2-512 limits assumed): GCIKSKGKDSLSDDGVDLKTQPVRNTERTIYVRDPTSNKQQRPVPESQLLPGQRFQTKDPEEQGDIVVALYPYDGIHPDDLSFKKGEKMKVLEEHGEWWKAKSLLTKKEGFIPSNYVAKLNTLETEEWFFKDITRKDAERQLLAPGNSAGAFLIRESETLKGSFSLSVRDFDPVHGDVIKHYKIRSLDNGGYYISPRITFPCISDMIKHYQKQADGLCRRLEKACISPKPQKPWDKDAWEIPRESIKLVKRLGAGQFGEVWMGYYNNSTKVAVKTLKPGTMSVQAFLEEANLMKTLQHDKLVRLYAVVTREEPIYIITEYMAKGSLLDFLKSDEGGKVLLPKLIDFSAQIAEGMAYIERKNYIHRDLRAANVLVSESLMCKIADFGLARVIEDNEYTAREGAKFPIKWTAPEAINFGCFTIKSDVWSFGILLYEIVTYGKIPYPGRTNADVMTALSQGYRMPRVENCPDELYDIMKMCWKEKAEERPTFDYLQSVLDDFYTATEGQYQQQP
# MEASUREMENT NOTES: Inhibition of Lyn at 10 uM by HTRF assay relative to control
EXPERIMENTAL READOUT: inhibition (%)
Express your answer in %, writing the number without its unit.

compound=COc1cccc(Nc2cc(Nc3cccc(C(=O)N(C)CCc4ccccn4)c3)nc(N)n2)c1 measurement_units=% experimental_value=9
compound=COc1cccc(Nc2cc(N3CCC[C@H]3C(=O)NCCc3ccc(O)cc3)nc(N)n2)c1 measurement_units=% experimental_value=6
compound=O=C(NCCc1ccc(O)cc1)c1cccc(Nc2nccc(Nc3ccc4ncsc4c3)n2)c1 measurement_units=% experimental_value=27
compound=CC(=O)CCCCC(=O)N1CCN(c2nccc(Oc3cccc(C)c3)n2)CC1 measurement_units=% experimental_value=3
compound=Nc1nc(N2CCOCC2)cc(N2CCC(C(=O)NCCc3ccc(O)cc3)CC2)n1 measurement_units=% experimental_value=5
compound=O=C(NC1Cc2ccccc2C1)c1cccc(Nc2ccnc(N3CCN(c4ccccc4)CC3)n2)c1 measurement_units=% experimental_value=4
compound=CC(=O)N1CCN(C(=O)c2cccc(Nc3cc(N(C)c4cccc(C)c4)ncn3)c2)CC1 measurement_units=% experimental_value=29
compound=Cc1cccc(Oc2ccnc(N3CCN(CC(=O)Nc4cccc5c4CCCC5)CC3)n2)c1 measurement_units=% experimental_value=1
compound=Cc1cccc(Oc2ccnc(N3CCN(C(=O)c4c(C)noc4C)CC3)n2)c1 measurement_units=% experimental_value=0
compound=Cc1cccc(N(C)c2cc(Nc3ccc(CC(=O)Nc4ccc5ncsc5c4)cc3)ncn2)c1 measurement_units=% experimental_value=16

*Q* API: value(readout= inhibition, system= Tyrosine-protein kinase Lyn (Homo sapiens) (UniProt P07948), query= Cc1cccc(N(C)c2cc(Nc3cccc(C(=O)NCc4ccncc4)c3)ncn2)c1 )
*A* 19

*Q* API: value(readout= inhibition, system= Tyrosine-protein kinase Lyn (Homo sapiens) (UniProt P07948), query= Cc1cccc(Nc2nccc3c2CN(C(=O)c2cc(C)n(C)c2C)CC3)c1 )
*A* 6

###

# TARGET OF ASSAY: Insulin-like growth factor 1 receptor (Homo sapiens) (UniProt P08069)
# Sequence (P08069 31-736 limits assumed): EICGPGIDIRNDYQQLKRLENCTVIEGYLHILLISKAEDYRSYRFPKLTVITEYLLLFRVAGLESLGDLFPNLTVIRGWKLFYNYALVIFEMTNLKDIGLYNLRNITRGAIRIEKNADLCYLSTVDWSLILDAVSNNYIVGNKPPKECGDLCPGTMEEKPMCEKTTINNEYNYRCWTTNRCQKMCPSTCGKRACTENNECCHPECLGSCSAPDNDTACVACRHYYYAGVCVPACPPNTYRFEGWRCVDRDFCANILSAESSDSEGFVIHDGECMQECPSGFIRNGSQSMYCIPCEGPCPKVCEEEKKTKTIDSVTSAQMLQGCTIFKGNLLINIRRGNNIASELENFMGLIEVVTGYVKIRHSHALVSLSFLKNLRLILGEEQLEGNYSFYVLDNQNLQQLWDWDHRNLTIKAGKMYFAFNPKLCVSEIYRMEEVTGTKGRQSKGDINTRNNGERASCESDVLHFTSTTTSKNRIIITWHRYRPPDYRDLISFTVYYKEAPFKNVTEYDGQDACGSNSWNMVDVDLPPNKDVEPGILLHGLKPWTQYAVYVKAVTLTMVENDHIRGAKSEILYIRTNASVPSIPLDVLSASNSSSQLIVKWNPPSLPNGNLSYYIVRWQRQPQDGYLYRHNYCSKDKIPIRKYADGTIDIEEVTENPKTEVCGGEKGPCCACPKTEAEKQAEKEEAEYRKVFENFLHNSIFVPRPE
# Sequence (P08069 741-1367 limits assumed): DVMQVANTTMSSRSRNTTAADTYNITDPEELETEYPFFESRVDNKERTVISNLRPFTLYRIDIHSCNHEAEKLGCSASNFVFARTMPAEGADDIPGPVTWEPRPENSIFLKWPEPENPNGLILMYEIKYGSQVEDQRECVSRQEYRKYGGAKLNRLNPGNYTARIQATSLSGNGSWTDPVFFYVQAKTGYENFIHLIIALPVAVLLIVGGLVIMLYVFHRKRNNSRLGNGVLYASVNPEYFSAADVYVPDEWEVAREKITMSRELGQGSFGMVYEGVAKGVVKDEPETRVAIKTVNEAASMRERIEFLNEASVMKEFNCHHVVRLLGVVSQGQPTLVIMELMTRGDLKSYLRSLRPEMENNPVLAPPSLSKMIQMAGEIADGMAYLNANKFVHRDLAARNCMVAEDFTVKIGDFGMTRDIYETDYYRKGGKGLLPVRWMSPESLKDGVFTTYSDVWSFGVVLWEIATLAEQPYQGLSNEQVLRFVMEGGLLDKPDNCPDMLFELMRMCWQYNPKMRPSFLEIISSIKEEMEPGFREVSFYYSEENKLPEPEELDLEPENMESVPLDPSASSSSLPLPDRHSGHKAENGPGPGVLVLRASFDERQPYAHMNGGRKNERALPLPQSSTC
# MEASUREMENT NOTES: Inhibition of IGF1R at 10 uM by HTRF assay relative to control
EXPERIMENTAL READOUT: inhibition (%)
Express your answer in %, writing the number without its unit.

Here's what some known entries look like.
compound=Cc1cccc(Nc2nccc(Nc3cccc(C(=O)N(C)CCc4ccccn4)c3)n2)c1 experimental_readout=inhibition experimental_value=87
compound=COc1cccc(Nc2cc(Nc3cccc(C(=O)NCCCn4ccnc4)c3)nc(N)n2)c1 experimental_readout=inhibition experimental_value=8
compound="Cc1ccc(CN2CCN(c3nccc(C(C#N)c4ccccn4)n3)CC2)cc1 (stereo not given)" experimental_readout=inhibition experimental_value=0
compound="Cc1cccc(Nc2cc(Nc3cccc(C(=O)N(CC(C)O)CC(C)O)c3)ncn2)c1 (stereo not given)" experimental_readout=inhibition experimental_value=0
compound=CC(=O)CCCCC(=O)N1CCN(c2nccc(Oc3cccc(C)c3)n2)CC1 experimental_readout=inhibition experimental_value=0
compound=Cc1cccc(N(C)c2cc(Nc3ccc(CC(=O)Nc4ccc5ncsc5c4)cc3)ncn2)c1 experimental_readout=inhibition experimental_value=0
compound="COC[C@@H]1CCCN1C(=O)C1CCCN1c1cc(Nc2cccc(Br)c2)ncn1 (stereo not given in full)" experimental_readout=inhibition experimental_value=0
compound=Cc1cccc(Nc2nccc3c2CN(C(=O)c2cc(C)n(C)c2C)CC3)c1 experimental_readout=inhibition experimental_value=0

*Q* API: value(readout= inhibition, system= Insulin-like growth factor 1 receptor (Homo sapiens) (UniProt P08069), query= O=C(COc1ccccc1)N1CCN(c2nccc(Nc3ccc4ncsc4c3)n2)CC1 )
*A* 0

*Q* API: value(readout= inhibition, system= Insulin-like growth factor 1 receptor (Homo sapiens) (UniProt P08069), query= Cc1cccc(Nc2ncnc3c2CN(C(=O)c2ccc(N(C)C)c4ccccc24)CC3)c1 )
*A* 3

*Q* API: value(readout= inhibition, system= Insulin-like growth factor 1 receptor (Homo sapiens) (UniProt P08069), query= Cc1cccc(Nc2nccc(Nc3cccc(C(=O)NCc4ccc(N(C)C)cc4)c3)n2)c1 )
*A* 0

*Q* API: value(readout= inhibition, system= Insulin-like growth factor 1 receptor (Homo sapiens) (UniProt P08069), query= CC(=O)N1CCN(C(=O)c2cccc(Nc3cc(N(C)c4cccc(C)c4)ncn3)c2)CC1 )
*A* 0

*Q* API: value(readout= inhibition, system= Insulin-like growth factor 1 receptor (Homo sapiens) (UniProt P08069), query= CN(CCc1ccccn1)C(=O)[C@@H]1CCCN1c1nccc(Nc2ccccc2)n1 )
*A* 0

*Q* API: value(readout= inhibition, system= Insulin-like growth factor 1 receptor (Homo sapiens) (UniProt P08069), query= Cc1cccc(N(C)c2cc(Nc3cccc(C(=O)NCCCn4ccnc4)c3)ncn2)c1 )
*A* 0

*Q* API: value(readout= inhibition, system= Insulin-like growth factor 1 receptor (Homo sapiens) (UniProt P08069), query= CN(CCc1ccccn1)C(=O)c1cccc(Nc2nccc(Nc3ccc4ncsc4c3)n2)c1 )
*A* 50

###

Below, each of the molecules is paired with its reported inhibition value.
# TARGET OF ASSAY: Tyrosine-protein kinase JAK3 (Homo sapiens) (UniProt P52333)
# Sequence (P52333 whole entry): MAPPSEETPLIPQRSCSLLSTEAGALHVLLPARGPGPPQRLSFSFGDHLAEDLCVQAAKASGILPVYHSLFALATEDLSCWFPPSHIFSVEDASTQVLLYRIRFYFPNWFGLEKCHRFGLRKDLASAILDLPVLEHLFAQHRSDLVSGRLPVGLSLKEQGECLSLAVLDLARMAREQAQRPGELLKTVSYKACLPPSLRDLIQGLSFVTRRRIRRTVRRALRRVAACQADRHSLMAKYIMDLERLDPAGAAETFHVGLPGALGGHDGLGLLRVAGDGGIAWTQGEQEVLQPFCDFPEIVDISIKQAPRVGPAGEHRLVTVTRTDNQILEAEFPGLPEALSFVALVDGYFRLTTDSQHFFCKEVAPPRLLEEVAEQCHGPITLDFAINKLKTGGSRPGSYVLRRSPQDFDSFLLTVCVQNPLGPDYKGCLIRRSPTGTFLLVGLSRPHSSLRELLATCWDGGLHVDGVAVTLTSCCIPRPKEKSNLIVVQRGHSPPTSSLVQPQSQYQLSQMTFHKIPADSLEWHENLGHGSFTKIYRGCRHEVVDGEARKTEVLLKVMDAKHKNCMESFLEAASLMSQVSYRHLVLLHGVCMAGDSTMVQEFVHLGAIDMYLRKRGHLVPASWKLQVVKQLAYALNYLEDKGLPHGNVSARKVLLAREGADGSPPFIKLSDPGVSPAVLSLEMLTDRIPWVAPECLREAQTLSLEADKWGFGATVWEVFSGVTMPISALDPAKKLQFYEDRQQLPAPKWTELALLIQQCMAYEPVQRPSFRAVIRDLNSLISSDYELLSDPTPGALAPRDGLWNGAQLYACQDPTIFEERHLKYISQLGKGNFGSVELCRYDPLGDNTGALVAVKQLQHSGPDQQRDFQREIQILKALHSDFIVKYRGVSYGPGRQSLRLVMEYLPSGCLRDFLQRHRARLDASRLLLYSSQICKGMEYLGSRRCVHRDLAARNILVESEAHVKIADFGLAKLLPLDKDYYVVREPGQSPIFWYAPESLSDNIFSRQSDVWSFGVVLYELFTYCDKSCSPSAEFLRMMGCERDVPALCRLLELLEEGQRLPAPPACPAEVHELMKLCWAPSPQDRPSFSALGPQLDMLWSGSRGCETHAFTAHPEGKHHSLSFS
# MEASUREMENT NOTES: Inhibition of JAK3 at 10 uM by HTRF assay relative to control
Express your answer in %, writing the number without its unit.

*Q* API: value(readout= inhibition, system= Tyrosine-protein kinase JAK3 (Homo sapiens) (UniProt P52333), query= O=C(COc1ccccc1)N1CCN(c2nccc(Nc3ccc4ncsc4c3)n2)CC1 )
*A* 5

*Q* API: value(readout= inhibition, system= Tyrosine-protein kinase JAK3 (Homo sapiens) (UniProt P52333), query= CN(C)CC(C)(C)CNC(=O)[C@@H]1CCCN1c1nccc(Nc2ccccc2)n1 )
*A* 0

*Q* API: value(readout= inhibition, system= Tyrosine-protein kinase JAK3 (Homo sapiens) (UniProt P52333), query= O=C(c1nc(SCc2ccc(Cl)cc2)n2ccccc12)N1CCN(c2cc(Nc3cccc(Br)c3)ncn2)CC1 )
*A* 0

*Q* API: value(readout= inhibition, system= Tyrosine-protein kinase JAK3 (Homo sapiens) (UniProt P52333), query= O=C(NCc1cccnc1)c1cccc(-c2ccc(Nc3ccc4ncsc4c3)nn2)c1 )
*A* 41

*Q* API: value(readout= inhibition, system= Tyrosine-protein kinase JAK3 (Homo sapiens) (UniProt P52333), query= COc1cccc(Nc2cc(N3CCC[C@H]3C(=O)NCCc3ccc(O)cc3)nc(N)n2)c1 )
*A* 0

*Q* API: value(readout= inhibition, system= Tyrosine-protein kinase JAK3 (Homo sapiens) (UniProt P52333), query= Cc1cccc(CN2CCN(c3cc(N(C)c4cccc(C)c4)ncn3)CC2)c1 )
*A* 6

*Q* API: value(readout= inhibition, system= Tyrosine-protein kinase JAK3 (Homo sapiens) (UniProt P52333), query= Cc1cccc(N(C)c2cc(N3CCN(CC(=O)Nc4nc(-c5ccccc5)cs4)CC3)ncn2)c1 )
*A* 0

*Q* API: value(readout= inhibition, system= Tyrosine-protein kinase JAK3 (Homo sapiens) (UniProt P52333), query= Nc1nc(Nc2ccc3ncsc3c2)cc(N2CCC[C@H]2C(=O)NCCc2cccc(I)c2)n1 )
*A* 16

*Q* API: value(readout= inhibition, system= Tyrosine-protein kinase JAK3 (Homo sapiens) (UniProt P52333), query= COc1cccc(Nc2cc(Nc3cccc(C(=O)NCCCn4ccnc4)c3)nc(N)n2)c1 )
*A* 11

The reported measurements were obtained from ChEMBL document CHEMBL1150387.
